So I've got a bunch of compounds here, and I need their Ki values.
# target entity: NgCA (Neisseria gonorrhoeae)
# Construct: gene cah; recombinant enzyme obtained in-house
# Sequence (Q50940 27-252): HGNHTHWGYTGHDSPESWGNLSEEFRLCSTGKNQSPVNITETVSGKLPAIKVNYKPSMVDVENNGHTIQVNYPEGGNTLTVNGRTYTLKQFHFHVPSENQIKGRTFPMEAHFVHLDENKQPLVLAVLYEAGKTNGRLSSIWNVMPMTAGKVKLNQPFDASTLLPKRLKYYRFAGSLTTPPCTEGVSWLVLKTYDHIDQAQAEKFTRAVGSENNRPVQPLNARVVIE
# assay name: stopped-flow CO2 hydration assay
# Format: biochemical
# condition set: read-out: Ki (nM)^a / NgCA
One number for each entry, in nM.

Consider the reported Ki for these compounds:
compound=O=C(O)[C@H]1CCCN(C(=S)S)C1 numeric_result=335
compound="CC(C)(C)OC(=O)NC1CCCN(C(=S)S)C1 (stereo not drawn)" numeric_result=538
compound=NS(=O)(=O)c1ccc(CCNC(=S)S)cc1 numeric_result=83.7
compound=S=C(S)N[C@H]1CN2CCC1CC2 numeric_result=518
compound="CC(=O)NC1CCCN(C(=S)S)C1 (stereo not drawn)" numeric_result=451

Turning now to a further compound:
## Task Give Ki for CN(C)CCNC(=S)S tested on NgCA (Neisseria gonorrhoeae).
## Result 568

Reference for the values: paper PMC8667944
